The reported numbers originate from PubChem BioAssay (NCI).

System: SNB-75 CNS
Assay protocol: NCI tumour cell line growth inhibition, 48 h; in the data active = GI50 below about 0.43 µM; inactive = the rest
Outcome field: choose from 1 for active, 0 for inactive

Consider the worked cases shown below.
C#C[C@@]1(O)[C@@H](CO)O[C@@H](n2cc(Br)c3c(N)ncnc32)[C@@H]1O: 1
CCOC(=O)CCC(NC(=O)c1ccc(Sc2nc3cc(N)cc(N)c3nc2-c2ccccc2)cc1)C(=O)OCC (centres undefined): 0
ClC(Cl)c1nc(-c2ccccc2)n2nc(-c3ccccc3)cc2n1: 0

[ask] In this assay, the call recorded for CCN(Cc1ccccn1)c1ccc(CO)c(Cl)c1 was what?
[reply] 0

[ask] Ok, now CN1C[C@@H](c2ccc(Cl)cc2)[C@]2(NC(=S)N(c3ccc(F)c(Cl)c3)C2=O)[C@@]12C(=O)NC1C=CC(Cl)=C[C@H]12 (some centres undefined)
[reply] 0

[ask] Cool, now Nc1nc(/C=C\c2ccc([N+](=O)[O-])s2)nc(N2CCOCC2)n1
[reply] 0

* * *

Test system: KM12 colon
Assay protocol: NCI tumour cell line growth inhibition, 48 h
A collection of compounds and their measured TGI
State the answer as a number, implicitly in µM.

Solved cases (5 shown):
CCN(CC)c1ccc2cc3ccc(=[N+](CC)CC)cc-3oc2c1: 1.92
Cc1ccc(-c2nc3cc(N4CCN(C)CC4)c(F)cc3[nH]2)cc1: 27
C=Cc1c(C)c(O)cc2c1-c1ccc(O)c(C)c1CC2: 30
CCOC(=O)C(=Cc1ccccc1Cl)C(=O)OCC: 2.67
O=C(CCN1CCOCC1)c1ccc(Oc2ccc(F)cc2)cc1: 32.6

[ask] For the compound C[C@]12CC[C@H]3[C@@H](CCC4=C[C@@H](N5CCCC5)CC[C@@]43C)[C@@H]1C/C(=C\c1ccncc1)[C@@H]2O , what TGI is on record?
[reply] 31

* * *

Test system: UACC-62 melanoma
Assay protocol: NCI tumour cell line growth inhibition, 48 h
Assay endpoint: GI50

See these solved cases before continuing.
O=C1OCC(C#Cc2ccccc2)=C1Br: 10700 nM
COc1cc2c(cc1O)CC[C@@H]1[C@@H]2CC[C@]2(C)[C@@H](OCCCN(C)C)CC[C@@H]12: 110 nM
COc1ccc(OC)c(/C=C/C(=O)N/N=C/c2ccccc2)c1: 3550 nM

[ask] Quick one: GI50 for N#Cc1cnc(=O)n(C2CC(O)C(CO)O2)c1 (stereo not given) ?
[reply] > 100000 nM

[ask] Check Nc1cc(N)c2nc(-c3ccccc3)c(NCCc3ccc(Cl)c(Cl)c3)nc2c1 too.
[reply] 2500 nM

[ask] Consider next the compound COc1ccc2c(c1)c1c(C)c3cnccc3c(C)c1n2CCCN in the same way.
[reply] 263 nM

[ask] Same question, NC(=O)c1c(Br)n(C2OC(CO)C(O)C2O)c2ncnc(N)c12 (stereo not given) this time
[reply] 1630 nM

[ask] Also COC(=O)c1c(C)c2n(c1C)C(=O)C(c1ccccc1)=C2 ?
[reply] 28100 nM

[ask] Param item: COc1ccc2c(c1)O/C(=C\c1ncc([N+](=O)[O-])n1C)C2=O
[reply] 848 nM

[ask] Proceed to O=C(/C=C\Sc1ccccn1)c1cccc(Br)c1
[reply] 11700 nM

* * *

# TGI per entry
Test system: SNB-75 CNS
Assay protocol: NCI tumour cell line growth inhibition, 48 h

# count of solved cases: 3
COc1ccc(NC(=O)NS(=O)(=O)c2ccc(C)cc2)nn1: > 100 µM
C[C@]12CC[C@H]3[C@@H](CCC4=C[C@@H](N5CCCC5)CC[C@@]43C)[C@@H]1C/C(=C\c1ccncc1)[C@@H]2O: 42.2 µM
COC(=O)C1=C(O)C(C(=O)OC)[C@]2(O)[C@@H](C(=O)OC)[C@H]1[C@H](C)[C@@H](c1ccccc1)[C@@H]2C(=O)OC (stereo partly specified): > 100 µM

[ask] Dear colleague, I am looking for the recorded TGI of the following compound: O=C(Nc1ccc(F)cc1F)c1cc(F)ccc1O
[reply] 30.7 µM
